target: recombinant JAK1 enzyme (Homo sapiens); construct: 8 nM of recombinant JAK1 enzyme (Insect expressed: V866-K1155); assay: JAK1 Kinase Assay (luciferase-luciferin-coupled chemiluminescence, ATP consumption); details: 8 nM JAK1 (V866-K1155), 30 μM IRS-1 peptide (Y608), 2 μM ATP, 2 hours ambient temperature, KinaseGlo; read-out: JAK1 IRS-1tide Chemilum (IC50)
pIC50: −log10 of the molar value.
observedProperty: pIC50

CC(=O)c1ccc(-c2nnc(Nc3cc(C(F)(F)F)cc(C(F)(F)F)c3)c3ccccc23)s1 :: 4.52 to 5.70
COC(=O)c1ccc(-c2nnc(Nc3cccc(C(C)(C)C)c3)c3ccccc23)cc1 :: 6.00 to 6.30
O=C(O)c1ccc(-c2nnc(Nc3cc(C(F)(F)F)cc(C(F)(F)F)c3)c3ccccc23)cc1 :: 4.52 to 5.70

Could I get pIC50 for every one of these entries?
1. O=C1CCCN1c1ccc(-c2nnc(Nc3cc(C(F)(F)F)cc(C(F)(F)F)c3)c3ccccc23)cc1
2. COC(=O)c1ccc(-c2nnc(Nc3cc(OCCN(C)C)cc(C(F)(F)F)c3)c3ccccc23)cc1
3. COC(=O)c1ccc(-c2nnc(Nc3cccc(Br)c3)c3ccccc23)cc1
4. NC(=O)c1ccc(-c2nnc(Nc3cc(C(F)(F)F)cc(C(F)(F)F)c3)c3ccccc23)cc1
5. Cc1n[nH]c2cc(-c3nnc(Nc4cc(C(F)(F)F)cc(C(F)(F)F)c4)c4ccccc34)ccc12

Reply:
1: 4.52 to 5.70; 2: 6.30 to 6.82; 3: 6.30 to 6.82; 4: 5.70 to 6.00; 5: 6.30 to 6.82

* * *

molecular target: recombinant JAK1 enzyme (Homo sapiens, UniProt P23458); construct: 8 nM of recombinant JAK1 enzyme (Insect expressed: V866-K1155); host or cells: insect cells; experiment: JAK1 Kinase Assay (luciferase-luciferin-coupled chemiluminescence, ATP consumption); format: biochemical; settings: 8 nM JAK1 (V866-K1155), 30 μM IRS-1 peptide (Y608), 2 μM ATP, 2 hours ambient temperature, KinaseGlo; read-out: JAK1 IRS-1tide Chemilum (IC50)
Sequence (P23458 865-1154 limits assumed): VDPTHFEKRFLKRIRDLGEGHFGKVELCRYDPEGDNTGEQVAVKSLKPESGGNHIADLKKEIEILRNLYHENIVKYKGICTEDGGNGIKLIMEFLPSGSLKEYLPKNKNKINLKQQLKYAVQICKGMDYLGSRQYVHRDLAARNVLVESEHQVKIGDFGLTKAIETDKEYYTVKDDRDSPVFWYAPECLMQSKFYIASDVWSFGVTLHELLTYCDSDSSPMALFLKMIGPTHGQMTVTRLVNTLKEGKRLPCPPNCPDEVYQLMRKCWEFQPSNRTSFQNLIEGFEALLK
pIC50: −log10 of the molar value.
observedProperty: pIC50

Consider the following illustrative entries.
COC(=O)c1ccc(-c2nnc(Nc3cccc(C(F)(F)F)c3)c3ncccc23)cc1 [Compound 39] :: 4.52 to 5.70
CCc1cc(Nc2nnc(-c3ccc(C(=O)OC)cc3)c3ccccc23)cc(C(F)(F)F)c1 [Compound 19] :: ≥ 6.82

Consider COC(=O)c1ccc(-c2nnc(Nc3cc(NCCCN(C)C)cc(C(F)(F)F)c3)c3ccccc23)cc1 [Compound 8] . Its measured pIC50 is 6.30 to 6.82
